- Test system: HL-60
- EXPERIMENTAL DETAILS: NCI tumour cell line growth inhibition, 48 h
The source made the active and inactive calls. Cut-off read from the data, not from the text of the source: active = GI50 up to about 1.1 µM and inactive = higher.
The entries below are paired with their reported GI50.

// below: answered compounds
Ask | What value of GI50 has been reported for the following compound? COC(=O)c1cccn1C(=O)n1cccc1
Reply | > 100 µM (inactive)

Ask | Given the entry O=C1CS(=O)(=O)C(c2cccc(Oc3ccccc3)c2)N1c1cc(Cl)ccc1Cl (stereo not drawn) , report its measured GI50.
Reply | 34.2 µM (inactive)

***
Ask | Please report the recorded GI50 for O=C(O)C[C@@H](Cl)[C@H](NC(=O)OCc1ccccc1)C(=O)O .
Reply | > 100 µM (inactive)

Ask | Returns the measured GI50 for the input compound. Input: Cc1cccc2c(N)c3cccc(C(=O)NCC[N+](C)(C)[O-])c3nc12
Reply | 4.05 µM (inactive)

Ask | Which GI50 is reported for this compound? CC(=O)OCC1OC(n2c(=S)n(-c3ccccc3)c(=O)c3cc(Br)ccc32)C(OC(C)=O)C(OC(C)=O)C1OC(C)=O (stereo not drawn)
Reply | > 100 µM (inactive)

Ask | Any idea what its GI50 is? The compound is NC(=O)N/N=C1/c2ccccc2-n2nccc21
Reply | 8.59 µM (inactive)

Ask | I am curious: what GI50 value has been reported for CCOc1cc2oc(C)cc(=O)c2c(OC)c1/C=N/c1ccc(Cn2c(C)nc3ccccc32)cc1 ?
Reply | > 100 µM (inactive)

Ask | Find the recorded GI50 belonging to COC(=O)C(=O)C(C(=O)C(=O)Nc1cccc(C(C)=O)c1)c1nc2ccccc2nc1O (stereo not drawn) and report it.
Reply | > 100 µM (inactive)

###

- Tested on: SK-MEL-2
- EXPERIMENTAL DETAILS: NCI tumour cell line growth inhibition, 48 h
The source made the active and inactive calls. Rule as the data show it: active = GI50 up to about 1.1 µM and inactive = higher.
Mark one answer only. Choices: active, inactive

Ask | What classification did Nc1nc(F)nc2c1ncn2C1OC(COP(=O)(O)O)C(O)C1O (stereo unspecified) end up with in this test?
Reply | inactive

Ask | So what was the verdict on O=C(Nc1ccc(S(=O)(=O)N[C@@H](C(=O)O)c2ccccc2)cc1)c1ccc(F)cc1 in this test?
Reply | inactive

Ask | Check the results log: what was the call for COC(=O)C12OCC34C(CC5C(C)C6=CC(=O)OC6=CC5(C)C3C(O)C1O)OC(=O)C(O)C24 (stereo unspecified) ?
Reply | active

Ask | Test call for this compound, please: O=S(=O)(O)C1=C2Sc3ccccc3N=C2c2ccccc2C1
Reply | inactive

Ask | Tell me the recorded outcome of this test for C=C(Cl)C(=C)CCC(Cl)C(C)(C)Cl (stereo unspecified) .
Reply | inactive

Ask | // outcome(item) with item = Cc1c(C(=O)CC(=O)C(=O)Nc2cc(Cl)ccc2Cl)[n+]([O-])c2ccccc2[n+]1[O-]
Reply | inactive

Ask | What did the test return for N#CC(C(=O)CCC(=O)Nc1ccc(Cl)cc1)c1ccc(Cl)cc1 (stereo unspecified) ?
Reply | inactive

Ask | Entry O=CC(O)C(O)C(O)COc1cc(CO)cc2c1C(=O)c1ccccc1C2=O (stereo unspecified) : call = ?
Reply | inactive

More entries:
Ask | Would you mind telling me which call this test gave COc1cc(C2C3=C(COC3=O)Oc3cc4c(cc32)OCO4)cc(OC)c1O (stereo unspecified) ?
Reply | active

Ask | What outcome does the record of this test show for COC(=O)C(=O)C(C(=O)Nc1cccc(C)c1C)C1Sc2ccccc2NC1=O (stereo unspecified) ?
Reply | inactive

Ask | So what was the verdict on O=C(O)CCCSc1nc2ccccc2s1 in this test?
Reply | inactive

Ask | Record request — test call for COC(=O)CCC1CCc2c(OC)ccc(OC)c2C1=O (stereo unspecified)
Reply | inactive

Ask | // param item: Oc1cc(-c2cccc(Cl)c2)nc2ncccc12 ; yields the recorded call
Reply | active

###

- Test system: BT-549
- EXPERIMENTAL DETAILS: NCI tumour cell line growth inhibition, 48 h
Activity calls are given as the source filed them. Cut-off read from the data, not from the text of the source: active = GI50 up to about 1.1 µM and inactive = higher.
ENDPOINT LABEL: GI50

Worked examples follow.
Ask | Provide value of GI50 for this record tested with BT-549: N#CC1C(=O)SC2c3ccccc3C(=O)c3ccccc3C12 (centres undefined)
Reply | > 10 µM (inactive)

Ask | API: value(readout= GI50, system= BT-549, query= CC(C)CC(N)C(=O)NC(C(=O)NC(CCCNC(=N)N)C(=O)NC(CS)C(=O)NC1CSCC(C(=O)NC(Cc2ccccc2)C(=O)NC(C(=O)NC(CCCNC(=N)N)C(=O)O)C(C)C)NC(=O)C2CCCN2C(=O)C(CCCCN)NC(=O)C2CCCN2C(=O)C2CCCN2C(=O)C(Cc2ccc(O)cc2)NC(=O)C(CO)NC(=O)C(CCCCN)NC(=O)C(C(C)O)NC(=O)C(Cc2c[nH]c3ccccc23)NC1=O)C(C)C (centres undefined) )
Reply | > 25 µM (inactive)

Ask | Test system BT-549; read-out GI50; what value for O=C(c1ccc(Cl)cc1)c1cnc(Nc2ccccc2Cl)s1 ?
Reply | 20.7 µM (inactive)

Now consider the entry below.
Ask | Form entry - test system: BT-549; read-out: GI50; compound: CC1(C)/C(=N\NC(N)=O)C2CCC1C2 (centres undefined)
Reply | > 100 µM (inactive)

###

Recorded GI50 values for a group of compounds are listed next.
- Tested on: NCI-H522
- EXPERIMENTAL DETAILS: NCI tumour cell line growth inhibition, 48 h
The source made the active and inactive calls. No stated cut-off is given here; in the data, active = GI50 up to about 1.1 µM and inactive = higher.

Look over these answered cases.
Ask | Reported GI50, compound O=c1[nH]cnc2sc(=S)c3c(c12)CCC3 : ____
Reply | 15.9 µM (inactive)

Ask | Looking for the measured GI50 of O=c1cnc2cc3ccccc3cc2[nH]1 , can you help?
Reply | > 100 µM (inactive)

Ask | What value of measured GI50 is listed for CCOC(=O)c1cn(C)nc1N/C(C)=C\C(=O)c1ccccc1 ?
Reply | > 100 µM (inactive)

Ask | // lookup GI50 for Cc1cc(C)c(C2=NO[C@@H]3[C@H]2C(=O)C=C2N(Cc4ccccc4)CCO[C@@]23O)c(C)c1
Reply | > 100 µM (inactive)

Ask | Need GI50 of O=C(Nc1ccc(N=C=S)cc1Cl)c1cc(Br)cc(Br)c1O , thanks.
Reply | 31.3 µM (inactive)

Further cases:
Ask | Requested read-out: GI50. Entry: COc1ccc(N2N=NN(C(C)C)/C2=C(/Cl)c2nnnn2-c2ccc(OC)cc2)cc1
Reply | 2.76 µM (inactive)

Ask | Name the recorded GI50 for Clc1cc2nc(C3CCCO3)[nH]c2cc1Cl (configuration not stated) .
Reply | 20.4 µM (inactive)

###

- System: HOP-18
- EXPERIMENTAL DETAILS: NCI tumour cell line growth inhibition, 48 h
The source made the active and inactive calls. Rule as the data show it: active = GI50 up to about 1.1 µM and inactive = higher.
Quick reference for GI50 among some compounds

Below are worked cases with known answers.
Ask | Quick check: GI50 of CC1=N/C(=C\c2c(O)ccc3ccccc23)C(=O)O1 ?
Reply | > 100 µM (inactive)

Ask | Which measured GI50 value corresponds to Cc1ccccc1C(C#N)/C(=N/NC(N)=S)C(=O)Nc1c(C)cccc1C (stereo not given) ?
Reply | > 100 µM (inactive)

Ask | Can you share its GI50? I mean this compound: CCC(=O)c1c(NOC2OCC(OC(C)=O)C(OC(C)=O)C2OC(C)=O)nc(OC)n(C)c1=O (stereo not given)
Reply | < 0.01 µM (active)

Ask | // GI50 lookup, key: CCOC(OC1=C(C#N)CCC1)C(CC)[Se]c1ccccc1 (stereo not given)
Reply | 27.2 µM (inactive)

Ask | Param item = CCCCCCC1=NOC(C(c2cc[nH]c2)N(C)[C@H](C(=O)OC)C(C)C)C1 (stereo not given in full) ; retrieve measured GI50.
Reply | 58.1 µM (inactive)

Continuing:
Ask | What measured GI50 goes with C[C@@H](CN1CC(=O)NC(=O)C1)N1CC(=O)NC(=O)C1 ?
Reply | 422 µM (inactive)

Ask | Any idea what its GI50 is? The compound is Cc1nc(-n2nc(-c3ccccc3)cc2-c2ccccc2)sc1C(=O)/C=C/c1ccc(Cl)cc1
Reply | 14.4 µM (inactive)

Ask | # lookup: GI50 of O=C(Nc1ccc(S(=O)(=O)N[C@@H](C(=O)O)c2ccccc2)cc1)c1ccc(F)cc1
Reply | > 100 µM (inactive)

Ask | May I ask what GI50 has been recorded for COC(=O)C(=O)C(C(=O)Nc1cccc(C)c1C)C1Sc2ccccc2NC1=O (stereo not given) ?
Reply | > 25 µM (inactive)

Ask | Requested field: GI50. Item: COC(=O)C(=O)C(C(=O)C(=O)Nc1cccc(C(C)=O)c1)c1nc2ccccc2nc1O (stereo not given)
Reply | > 100 µM (inactive)

Ask | Give the measured GI50 of CN1CCCC2[C@@H]3CCC4=C(O)C(=O)CC[C@]4(C)C3CC[C@@]21C (stereo not given in full) .
Reply | > 100 µM (inactive)

Ask | Fill blank: measured GI50 of the compound Nc1ccn(C2OC(C(O)CO)C(O)C2O)c(=O)n1 (stereo not given) is ____.
Reply | > 100 µM (inactive)

Ask | Entry under review: CC(c1ccccc1)N1CC(C)(c2ccccc2)N(O)C(c2ccccc2)C1C (stereo not given) . Reported GI50?
Reply | 17.7 µM (inactive)

Ask | For the compound O=C1C2C(C(=O)N1c1ccccc1)C1(c3ccccc3)OC2(c2ccccc2)c2ccccc21 (stereo not given) , what GI50 is on record?
Reply | > 100 µM (inactive)

Ask | Given the compound CCCCCC1CC=CC(NC(=O)OCc2ccccc2)C1/C=C/CCCC1OCCO1 (stereo not given) , what is its reported GI50?
Reply | > 100 µM (inactive)
